Origin of measurements: patent US8981106B2

TESTED SYSTEM: CXCR2 (Homo sapiens (Human))
Sequence (P25025 whole entry): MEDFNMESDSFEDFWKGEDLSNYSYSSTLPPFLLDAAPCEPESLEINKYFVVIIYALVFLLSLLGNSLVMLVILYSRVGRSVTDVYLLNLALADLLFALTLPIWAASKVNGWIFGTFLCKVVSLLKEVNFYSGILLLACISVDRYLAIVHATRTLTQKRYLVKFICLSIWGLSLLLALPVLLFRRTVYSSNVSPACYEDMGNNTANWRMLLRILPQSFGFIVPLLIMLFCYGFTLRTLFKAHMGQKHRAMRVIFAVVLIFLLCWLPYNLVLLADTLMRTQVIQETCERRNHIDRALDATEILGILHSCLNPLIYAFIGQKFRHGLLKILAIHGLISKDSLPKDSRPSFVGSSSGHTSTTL
PROTOCOL DESCRIPTION: Inhibition of GROα-mediated intracellular calcium release in human neutrophils (FLIPR-3 Ca2+ mobilization)
Format: cell-based
DETAILS: human neutrophils, 25 nM GROα; read-out: IC50
PARAMETER: IC50

In the examples that follow, each entry is paired with its recorded IC50.
# MOLECULE, TESTED SYSTEM, IC50
records = [
    ("O=C(Nc1ccc(F)cc1)c1ccc(SCCCCB(O)O)nc1 [Compound 10]", "CXCR2 (Homo sapiens (Human))", "689 nM"),
    ("O=C(Nc1ccc(F)cc1)c1ccc(SCc2ccncc2)nc1 [Compound 43]", "CXCR2 (Homo sapiens (Human))", "> 5000 nM"),
    ("O=C(Nc1ccc(F)cc1)c1ccc(SCC(=O)c2cccs2)nc1 [Compound 122]", "CXCR2 (Homo sapiens (Human))", "> 5000 nM"),
]

Just so you know, measured IC50 for O=C(CSc1ccc(C(=O)Nc2ccc(F)cc2)cn1)c1ccc(N2CCOCC2)cc1 [Compound 99] came out at > 5000 nM
